Each recorded value in this set is attributed to ChEMBL document CHEMBL2396600.

- assay_method_text: Cytotoxicity against rat endothelial cells assessed as cell viability at 10 ug/mL after 75 mins by MTT assay relative to control
- Assay type: cell-based
- measurement_context: read-out: Activity

{"smiles_entry": "CCCCCCCCOC(=O)CN(C)C(=N)N", "viability at 1.25 h, 10 ug/mL": "84.6%"}
{"smiles_entry": "CCCCCCCCCCCCCCCCCCOC(=O)CN(C)C(=N)N", "viability at 1.25 h, 10 ug/mL": "95.3%"}

====

- assay_method_text: Neurotoxicity against rat primary cortical neurons assessed as cell death at 10 ug/mL after 60 mins by LDH assay relative to control
- Type: toxicity, cell-based
- measurement_context: cerebral cortex neuron, 1 h
Returns one of Y or N; Y when fold change (FC) is >= 0.6.

{"smiles_entry": "CCCCCCCCOC(=O)CN(C)C(=N)N", "assigned_class": "Y"}
{"smiles_entry": "CCCCCCCCCCCCCCCCCCOC(=O)CN(C)C(=N)N", "assigned_class": "Y"}
{"smiles_entry": "CCCCCCCCCOC(=O)CN(C)C(=N)N", "assigned_class": "N"}
{"smiles_entry": "CCCCOC(=O)CN(C)C(=N)N", "assigned_class": "N"}
{"smiles_entry": "CCOC(=O)CN(C)C(=N)N", "assigned_class": "N"}
